TGI reference
Tested on: HCT-116 colon
assayProtocol: NCI tumour cell line growth inhibition, 48 h

# compound, TGI
rows = [
    ("COc1ccc(N=C(C)c2ccncc2)cc1", "> 100 µM"),
    ("CC(=O)C(=[N+]=[N-])C(=O)OC(C)(C)C#N", "> 10 µM"),
    ("COC(=O)C(O)P(=O)(OC)OC (stereo unspecified)", "> 100 µM"),
    ("CCN(CC)c1cc(/C=C/c2ccc(OC)c(OC)c2)nc2cc(F)c(F)cc12", "17.5 µM"),
    ("Cc1cc(N(CCC#N)S(C)(=O)=O)ccc1C=O", "> 100 µM"),
]

Can you share its TGI? I mean this compound: Cc1[nH]c(=O)nc(N/N=C/c2ccc(Cl)cc2)c1C(=O)NC(C)(CO)CO
> 100 µM

* * *

Test system: SK-OV-3 ovarian
assayProtocol: NCI tumour cell line growth inhibition, 48 h
TGI reference

Use these answered entries as a reference point.
# compound, observed
records = [
    ("OCCCN=NNc1ccc(-c2nc3ccccc3[nH]2)cc1", "73 µM"),
    ("CC(=O)C(=[N+]=[N-])C(=O)OC(C)(C)C#N", "> 10 µM"),
    ("CC1C[C@H](OC(N)=O)C(C)CC1=O (stereo partly specified)", "> 100 µM"),
]

Can you share its TGI? I mean this compound: CCOc1ccc([C@@H]2[C@@H](Oc3ccccc3)C(=O)N2c2cc(OC)c(OC)c(OC)c2)cc1
> 100 µM

Now give it for O=[N+]([O-])c1ccc(C2=NOC(c3ccccc3F)N2C23CC4CC(CC(C4)C2)C3)cc1 (stereo unspecified) too.
> 100 µM

Now give it for COc1nc(SC)nc2c1cnn2C1OC(C(O)CO)C(OC)C1O (stereo unspecified) too.
> 100 µM

Now give it for COc1ccc(C(O)/C(=N\NC(N)=S)c2nc3ccc([N+](=O)[O-])cc3[nH]c2=O)cc1OC (stereo unspecified) too.
> 100 µM

Now give it for CC(C)c1ccccc1NC(=O)C(=O)Cc1nc2ccccc2s1 too.
> 100 µM

* * *

TGI reference
Tested on: MALME-3M melanoma
assayProtocol: NCI tumour cell line growth inhibition, 48 h

# compound, recordedEndpoint, observed
records = [
    ("C[C@]12CCC[C@H](Cl)C1(O)C[C@H](C(=O)O)CC2 (stereo not given in full)", "TGI", "> 100 µM"),
    ("CCCCC(=O)Nc1ccc2cc(C(=O)OC)c(ON3C(=O)c4ccccc4C3=O)nc2n1", "TGI", "38.5 µM"),
]

Can you share its TGI? I mean this compound: CC(C)[C@@]12C[C@@H](OC(=O)[C@H]3CO3)[C@@](C)(O1)[C@@H]1CC[C@@H](C)[C@H]1[C@@H]2OC(=O)/C=C/c1ccccc1
30 µM

Now give it for CC(=O)Nc1ccc(Sc2ccc([N+](=O)[O-])o2)cc1 too.
4.77 µM

* * *

Test system: OVCAR-4 ovarian
assayProtocol: NCI tumour cell line growth inhibition, 48 h; in the data active = GI50 below about 0.43 µM; inactive = the rest
Select the matching outcome among 1.0 (active), 0.0 (inactive)

Use these answered entries as a reference point.
# compound, classLabel
records = [
    ("CC(C)[C@@]12C[C@@H](OC(=O)[C@H]3CO3)[C@@](C)(O1)[C@@H]1CC[C@@H](C)[C@H]1[C@@H]2OC(=O)/C=C/c1ccccc1", 0.0),
    ("C=C(C)[C@@H]1CC[C@]2(C)[C@H](C(=O)C=C3[C@@H]4C[C@](C)(C(=O)N5CCN(C)CC5)CC[C@]4(C)CC[C@]32C)[C@@]1(C)CCC#N", 0.0),
    ("O=[N+]([O-])c1ccc(-c2nc(-c3ccccc3)c(-c3ccccc3)n2-c2ccccc2)cc1", 0.0),
    ("ClC1=C(Cl)C(Cl)=C(Cl)C1=C/C=C/c1ccccc1", 1.0),
    ("COc1cc(/C=C/c2cc(/C=C/c3ccc(O)c(OC)c3)n(-c3c(C)cccc3C)c(=O)n2)ccc1O", 0.0),
]

Now for another entry.
State the result this test recorded for COc1cc(C(=O)/C=C/c2cc(C(=O)c3cc(OC)c(OC)c(OC)c3)ccc2OC)ccc1N .
0.0

* * *

Tested on: MCF7 breast
assayProtocol: NCI tumour cell line growth inhibition, 48 h
TGI reference

# compound, observed
data = [
    ("COc1cc(C(=O)/C=C/c2cc(C(=O)c3cc(OC)c(OC)c(OC)c3)ccc2OC)ccc1N", "2.28 µM"),
]

# next compound below
Can you share its TGI? I mean this compound: CC(=O)Nc1ccc(Sc2ccc([N+](=O)[O-])o2)cc1
6.92 µM

* * *

System: UACC-257 melanoma
assayProtocol: NCI tumour cell line growth inhibition, 48 h; in the data active = GI50 below about 0.43 µM; inactive = the rest
Select the matching outcome among 1 (yes) for active, 0 (no) for inactive

Use these answered entries as a reference point.
# compound, classLabel
measured = [
    ("OCCCN=NNc1ccc(-c2nc3ccccc3[nH]2)cc1", "0 (no)"),
    ("CN1CCCNc2c(c(=O)c2=O)NCCCN(C)CCCNc2c(c(=O)c2=O)NCCCN(C)CCCNc2c(c(=O)c2=O)NCCCN(C)CCCNc2c(c(=O)c2=O)NCCCN(C)CCCNc2c(c(=O)c2=O)NCCCN(C)CCCNc2c(c(=O)c2=O)NCCCN(C)CCCNc2c(c(=O)c2=O)NCCC1", "0 (no)"),
]

State the result this test recorded for CCCCCC(O)C1C(=O)OC(C)C(O)/C=C/C=C/C=C/C=C\C=C(\C)C(O)CC(O)CC(O)CC(O)CC(O)CC(O)CC1O (stereo not drawn) .
0 (no)

Now give it for Cc1cc2cc3cc(C)c(N(C)C)cc3nc2cc1N(C)C too.
0 (no)

Now give it for CN(C)c1ccc(C(=C2C=CC(=[N+](C)C)C=C2)c2ccc(N(C)C)cc2)cc1 (tested in a mixture with another compound) too.
1 (yes)

Now give it for CCN(CC)CCCNc1cccc2c(SCc3ccccc3)ccnc12 too.
0 (no)

Now give it for COc1cc2c(cc1OCCOS(C)(=O)=O)N=C[C@@H]1CCCN1C2=O too.
0 (no)

Now give it for CCOc1ccc([C@@H]2[C@@H](Oc3ccccc3)C(=O)N2c2cc(OC)c(OC)c(OC)c2)cc1 too.
0 (no)

* * *

TGI reference
Test system: SF-295 CNS
assayProtocol: NCI tumour cell line growth inhibition, 48 h

# molecule, TGI
records = [
    ("O=C(CC(=O)N1N=C(N2CCCCC2)CC1c1ccccc1)Nc1ccc(Cl)cc1 (stereo not given)", "> 100 µM"),
    ("CCOC(=O)C(=O)Nc1c(F)cc(F)cc1Br", "> 100 µM"),
]

Can you share its TGI? I mean this molecule: O=C1C(Br)=CC2(C=C1Br)CCN=c1c2c(O)c2nc3ccccc3c3ccnc1c23
19.3 µM

Now give it for CC1(C)CC[C@]2(C)CC=C3[C@]4(C)CC[C@H]5C(C)(C)C(=O)CC[C@]5(C)[C@H]4CC[C@@]3(C)[C@H]2C1 too.
> 100 µM

Now give it for CCCc1c(OC)c(=O)c2c(OC)cc(OC)c3c4c(OC)cc(OC)c5c(=O)c(OC)c(CCC)c(c1c23)c54 too.
33.1 µM

* * *

TGI reference
Tested on: HCC-2998 colon
assayProtocol: NCI tumour cell line growth inhibition, 48 h

Use these answered entries as a reference point.
# compound, recordedEndpoint, observed
data = [
    ("CN1C2(c3ccccc3)c3c(-c4ccccc4)sc(-c4ccccc4)c3C1(c1ccccc1)C1C(=O)N(c3ccccc3)C(=O)C12 (stereo not given)", "TGI", "> 100 µM"),
    ("COc1ccc(/C(=N/NC(=O)NN)C(c2ccc(OC)cc2)C2(O)CNc3c(Cl)cc(Cl)cc32)cc1 (stereo not given)", "TGI", "> 100 µM"),
]

Can you share its TGI? I mean this compound: Cc1ccc(NC(=O)NC(=O)c2ccc([N+](=O)[O-])cc2[N+](=O)[O-])cc1Oc1ncc(Cl)cn1
0.619 µM

Now give it for O=c1oc2ccccc2c(O)c1C(c1ccco1)c1c(O)c2ccccc2oc1=O too.
55.1 µM

Now give it for CCOc1ccc(/C(O)=C/c2nc3ccccc3nc2/C=C(\O)c2ccc(OCC)cc2)cc1 too.
> 100 µM

Now give it for CC1=CC(=O)CCC2(C)C1CC[C@@H]2OC=O (stereo not given in full) too.
> 100 µM

Now give it for COc1ccc(-c2csc(=Nc3ccccc3)n2CC(O)c2ccc([N+](=O)[O-])cc2)cc1 (stereo not given) too.
> 100 µM

Now give it for CC1(C)N=C(C(N)=O)c2ncn(-c3ccccc3)c2N1 too.
> 100 µM

Now give it for CC1(C2(C)OC(=O)c3ccccc32)OC(=O)c2ccccc21 (stereo not given) too.
> 100 µM

Now give it for CC1C[C@H](OC(N)=O)C(C)CC1=O (stereo not given in full) too.
> 100 µM
